assay: Solubility test in FaSSIF or water, shaken at 37° C., filtrate measured by HPLC; conditions: FaSSIF, 37 °C, thermodynamic from solid
Measured Metric: solubility at 20 h (µg/mL)
Field format: number, assumed µg/mL, no unit text.

Check the records and state solubility at 20 h for C[C@]12CC[C@@H]3c4ccc(O)cc4C[C@@H](CCCCCCCCC[S+]([O-])CCCC(F)(F)C(F)(F)F)[C@H]3[C@@H]1CC[C@@H]2O (stereo partly shown)
1.7
